Source: patent US12492173B2

Could you please report measured Herbicidal action against SETVI for the items listed next?
tested on: Setaria viridis; assay: Pre-emergence herbicidal action, SETVI; assay type: in vivo; design: key: % activity: 100 = plants have died, 0 = like control plants; details: comparative experiment, 80 g of a.i./ha
Answer using only a numeral; do not append any unit.

Form field Herbicidal action against SETVI, entry CC[S+]([O-])c1c(C(F)(F)F)ccc(C(=O)Nc2nnnn2C)c1Br (stereo not drawn) [Example V-12, reference compound] : 0

Form field Herbicidal action against SETVI, entry CCSc1c(C(F)(F)F)ccc(C(=O)Nc2nnnn2C)c1Br [Example V-11, reference compound] : 0

Form field Herbicidal action against SETVI, entry CCSCc1c(C(F)(F)F)ccc(C(=O)Nc2nnnn2C)c1Br : 100

Form field Herbicidal action against SETVI, entry CC[S+]([O-])Cc1c(C(F)(F)F)ccc(C(=O)Nc2nnnn2C)c1Br (racemic) : 100

Form field Herbicidal action against SETVI, entry CCS(=O)(=O)c1c(C(F)(F)F)ccc(C(=O)Nc2nnnn2C)c1Br [Example V-13, reference compound] : 0

Form field Herbicidal action against SETVI, entry CCS(=O)(=O)Cc1c(C(F)(F)F)ccc(C(=O)Nc2nnnn2C)c1Br : 90

---

test system: Alopecurus myosuroides; experiment: Post-emergence herbicidal action, ALOMY; format: in vivo; design: key: % herbicidal action vs untreated; 100 = plants died, 0 = like control; conditions: Dosage 80 g/ha
Could you please report measured herbicidal action ALOMY for the items listed next?
Answer using only a numeral; do not append any unit.

Form field herbicidal action ALOMY, entry CCCn1nnnc1NC(=O)c1ccc(C(F)(F)F)c(CSCC)c1Br : 80

Form field herbicidal action ALOMY, entry CCCn1nnnc1NC(=O)c1ccc(C(F)(F)F)c(C[S+]([O-])CC)c1Br (stereo not shown) : 80

Form field herbicidal action ALOMY, entry CCS(=O)(=O)Cc1c(C(F)(F)F)ccc(C(=O)Nc2nnnn2C)c1C : 80

Form field herbicidal action ALOMY, entry CCn1nnnc1NC(=O)c1ccc(C(F)(F)F)c(C[S+](C)[O-])c1SC (stereo not shown) : 90

---

System: Avena fatua
Assay: Post-emergence herbicidal action, AVEFA
Format: in vivo
Parameters: key: % herbicidal action vs untreated; 100 = plants died, 0 = like control
Conditions: Dosage 80 g/ha
Protocol: [table] 2. […] After the test plants have been left to stand in the greenhouse under optimal growth conditions for about 3 weeks, the action of the preparations is assessed visually in comparison to untreated controls (herbicidal action in percent (%): 100% activity=the plants have died, 0% activity=like control plants). […]
Could you please report measured herbicidal action AVEFA for the items listed next?
Answer using only a numeral; do not append any unit.

Form field herbicidal action AVEFA, entry CCCn1nnnc1NC(=O)c1ccc(C(F)F)c(CS(C)(=O)=O)c1Cl : 80

Form field herbicidal action AVEFA, entry CCn1nnnc1NC(=O)c1ccc(C(F)(F)F)c(CS(C)(=O)=O)c1OC : 100

Form field herbicidal action AVEFA, entry CCCn1nnnc1NC(=O)c1ccc(C(F)(F)F)c(C[S+]([O-])CC)c1Br (stereo not drawn) : 90

Form field herbicidal action AVEFA, entry CCS(=O)(=O)Cc1c(C(F)(F)F)ccc(C(=O)Nc2nnnn2C)c1C : 80

Form field herbicidal action AVEFA, entry CCCn1nnnc1NC(=O)c1ccc(C(F)(F)F)c(C[S+](C)[O-])c1OC (stereo not drawn) : 100

Form field herbicidal action AVEFA, entry CCn1nnnc1NC(=O)c1ccc(C(F)(F)F)c(CS(C)(=O)=O)c1Cl : 100

Form field herbicidal action AVEFA, entry CCS(=O)(=O)Cc1c(C(F)F)ccc(C(=O)Nc2nnnn2C)c1Cl : 90

Form field herbicidal action AVEFA, entry Cc1c(C(=O)Nc2nnnn2C)ccc(C(F)(F)F)c1CS(C)(=O)=O : 80

Form field herbicidal action AVEFA, entry CCCn1nnnc1NC(=O)c1ccc(C(F)(F)F)c(CSC)c1SC : 90

---

Could you please report measured herbicidal action VERPE for the items listed next?
test system: Veronica persica; experiment: Pre-emergence herbicidal action, VERPE; assay type: in vivo; conditions: dosage 320 g/ha
Return type: number; implicit unit %.

herbicidal action VERPE for Veronica persica with input CCn1nnnc1NC(=O)c1ccc(C(F)(F)F)c(CS(=O)(=O)CC)c1Cl equals 100

herbicidal action VERPE for Veronica persica with input CCCn1nnnc1NC(=O)c1ccc(C(F)(F)F)c(CSCC(F)(F)F)c1Cl equals 100

herbicidal action VERPE for Veronica persica with input CCn1nnnc1NC(=O)c1ccc(S(C)(=O)=O)c(CS(C)(=O)=O)c1Cl equals 100

herbicidal action VERPE for Veronica persica with input COc1c(C(=O)Nc2nnnn2C)ccc(C(F)(F)F)c1C[S+](C)[O-] (stereo not drawn) equals 100

herbicidal action VERPE for Veronica persica with input CCCn1nnnc1NC(=O)c1ccc(S(C)(=O)=O)c(C[S+](C)[O-])c1C (stereo not drawn) equals 100

herbicidal action VERPE for Veronica persica with input COc1c(C(=O)Nc2nnnn2C)ccc(Cl)c1CS(C)(=O)=O equals 80

herbicidal action VERPE for Veronica persica with input CCn1nnnc1NC(=O)c1ccc(S(C)(=O)=O)c(CSC)c1Cl equals 100

herbicidal action VERPE for Veronica persica with input CSCc1c(Cl)ccc(C(=O)Nc2nnnn2C)c1Cl equals 90

herbicidal action VERPE for Veronica persica with input CCCn1nnnc1NC(=O)c1ccc(C(F)(F)F)c(CS(C)(=O)=O)c1Br equals 100

---

Could you please report measured pest or weed control at 20 g/ha for the items listed next?
system: Echinochloa crus-galli; assay: Pre-emergence herbicidal action, ECHCG; type: in vivo; conditions: Echinochloa crus-galli, 504 h, comparative experiment, 20 g of a.i./ha, read-out: Herbicidal action against ECHCG
Return type: number; implicit unit %.

Form field pest or weed control at 20 g/ha, entry CSc1c(C(=O)Nc2nnnn2C)ccc(C(F)(F)F)c1S(C)(=O)=O [Example V-2, reference compound] : 50

Form field pest or weed control at 20 g/ha, entry CSc1c(C(=O)Nc2nnnn2C)ccc(C(F)(F)F)c1[S+](C)[O-] (stereo not drawn) [Example V-1, reference compound] : 50

Form field pest or weed control at 20 g/ha, entry CCSc1c(C(=O)Nc2nnnn2C)ccc(C(F)(F)F)c1SCC [Example V-3, reference compound] : 0

Form field pest or weed control at 20 g/ha, entry CSc1c(I)ccc(C(=O)Nc2nnnn2C)c1Cl [Example V-5, reference compound] : 0

Form field pest or weed control at 20 g/ha, entry Cn1nnnc1NC(=O)c1ccc(C(F)(F)F)c([S+](C)[O-])c1Br (stereo not drawn) [Example V-9, reference compound] : 60

Form field pest or weed control at 20 g/ha, entry Cn1nnnc1NC(=O)c1ccc(I)c(S(C)(=O)=O)c1Cl [Example V-7, reference compound] : 10

---

tested on: Polygonum convolvulus; assay: Post-emergence herbicidal action, POLCO; assay type: in vivo; conditions: post-emergence, dosage 80 g/ha
Could you please report measured herbicidal action POLCO for the items listed next?
Return type: number; implicit unit %.

Form field herbicidal action POLCO, entry CC[S+]([O-])Cc1c(C(F)(F)F)ccc(C(=O)Nc2nnnn2C)c1Cl (racemic) [Example 1-300] : 100

Form field herbicidal action POLCO, entry Cn1nnnc1NC(=O)c1ccc(C(F)(F)F)c(CS(C)(=O)=O)c1Cl [Example 1-298] : 90

Form field herbicidal action POLCO, entry CCn1nnnc1NC(=O)c1ccc(C(F)(F)F)c(C[S+]([O-])CC)c1Cl (stereo not drawn) [Example 2-300] : 100

Form field herbicidal action POLCO, entry CCCn1nnnc1NC(=O)c1ccc(C(F)(F)F)c(CSCC2CC2)c1Cl [Example 3-314] : 100

Form field herbicidal action POLCO, entry CCn1nnnc1NC(=O)c1ccc(C(F)F)c(C[S+]([O-])CC)c1Cl (stereo not drawn) [Example 2-324] : 100

Form field herbicidal action POLCO, entry CCn1nnnc1NC(=O)c1ccc(C(F)(F)F)c(CS(=O)(=O)CC)c1Br [Example 2-385] : 90

Form field herbicidal action POLCO, entry Cn1nnnc1NC(=O)c1ccc(C(F)(F)F)c(CSCC2CC2)c1Cl [Example 1-314] : 100

Form field herbicidal action POLCO, entry CCn1nnnc1NC(=O)c1ccc(C(F)(F)F)c(CSC)c1SC [Example 2-161] : 100

Form field herbicidal action POLCO, entry Cn1nnnc1NC(=O)c1ccc(C(F)(F)F)c(C[S+](C)[O-])c1Cl (racemic) [Example 1-297] : 80

---

Could you please report measured herbicidal action SETVI for the items listed next?
tested on: Setaria viridis; assay: Post-emergence herbicidal action, SETVI; format: in vivo; design: key: % herbicidal action vs untreated; 100 = plants died, 0 = like control; conditions: Dosage 80 g/ha
Answer using only a numeral; do not append any unit.

herbicidal action SETVI for Setaria viridis with input CCn1nnnc1NC(=O)c1ccc(C(F)(F)F)c(CS(C)(=O)=O)c1Cl equals 90

herbicidal action SETVI for Setaria viridis with input CCn1nnnc1NC(=O)c1ccc(C(F)(F)F)c(CS(C)(=O)=O)c1SC equals 90

herbicidal action SETVI for Setaria viridis with input CCSCc1c(C(F)(F)F)ccc(C(=O)Nc2nnnn2C)c1SCC equals 90

herbicidal action SETVI for Setaria viridis with input CCn1nnnc1NC(=O)c1ccc(C(F)F)c(CS(=O)(=O)CC)c1Cl equals 100

herbicidal action SETVI for Setaria viridis with input CCCn1nnnc1NC(=O)c1ccc(C(F)(F)F)c(CSCC)c1Cl equals 90

herbicidal action SETVI for Setaria viridis with input Cn1nnnc1NC(=O)c1ccc(C(F)(F)F)c(C[S+](C)[O-])c1F (stereo not drawn) equals 100

herbicidal action SETVI for Setaria viridis with input CCS(=O)(=O)Cc1c(C(F)F)ccc(C(=O)Nc2nnnn2C)c1Cl equals 100

herbicidal action SETVI for Setaria viridis with input CCCn1nnnc1NC(=O)c1ccc(C(F)(F)F)c(CS(C)(=O)=O)c1Cl equals 80

herbicidal action SETVI for Setaria viridis with input CCCn1nnnc1NC(=O)c1ccc(C(F)(F)F)c(CSCC)c1Br equals 90
